Tested on: Multidrug resistance-associated proteins (MRPs)
Assay: In vivo microdialysis pharmacokinetics of LVFX with MRPs inhibitor MK571
Design: species or system rat
Settings: rat, intravenous, with MK571 20 mg/kg i.p., 30 min before LVFX; blood; MK571 group, MK571 20 mg/kg i.p. + LVFX 50 mg/kg; mean ± SD, N=5
readout kind: MRT

[[record]]
query_smiles = "C[C@H]1COc2c(N3CCN(C)CC3)c(F)cc3c(=O)c(C(=O)O)cn1c23"
recorded_value = "1.16 h"


====

Test: In vivo microdialysis pharmacokinetics of LVFX without transporter inhibitors
Set-up: species or system rat
Conditions: rat, blood (microdialysate, unbound), iv, 50 mg/kg, blood; Group 2: 1.25% NaHCO3 solution + LVFX 50 mg/kg; mean ± SD, n=3
readout kind: AUC(0-inf)

[[record]]
compound = "C[C@H]1COc2c(N3CCN(C)CC3)c(F)cc3c(=O)c(C(=O)O)cn1c23 [LVFX, Levofloxacin]"
recorded_value = "11700 ng·h/mL"

